Target: rat adrenergic α1B receptor (Rattus norvegicus, UniProt P15823)
Construct: rat adrenergic α1B receptor obtained from Wistar Rat liver; from tissue; host or cells: Wistar rat liver
Sequence (P15823 1-515): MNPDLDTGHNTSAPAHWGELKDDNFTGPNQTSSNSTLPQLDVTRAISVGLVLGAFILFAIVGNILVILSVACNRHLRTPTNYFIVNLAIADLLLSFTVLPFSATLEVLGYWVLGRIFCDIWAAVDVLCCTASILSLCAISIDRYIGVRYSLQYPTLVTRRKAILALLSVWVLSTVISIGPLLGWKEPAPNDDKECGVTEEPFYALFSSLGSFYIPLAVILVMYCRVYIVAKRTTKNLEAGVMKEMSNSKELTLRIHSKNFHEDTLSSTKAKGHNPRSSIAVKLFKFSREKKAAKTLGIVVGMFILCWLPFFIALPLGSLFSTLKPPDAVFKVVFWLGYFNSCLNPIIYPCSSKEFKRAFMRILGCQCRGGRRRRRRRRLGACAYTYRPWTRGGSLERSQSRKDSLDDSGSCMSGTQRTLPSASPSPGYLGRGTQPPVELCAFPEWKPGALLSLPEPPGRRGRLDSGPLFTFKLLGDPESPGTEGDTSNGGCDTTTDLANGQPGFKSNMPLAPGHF
Assay: Radioligand binding, adrenergic α1B (Protocol Group A)
Settings: 0.1 μM compound, [3H]Prazosin, read-out: percent inhibition of specific binding, Adrenergic α1B
Listing of entries alongside the reported inhibition at 0.1 µM.
// units = %; emit number, no label

Cc1ccc2c(c1)c1c(n2CC(OC(N)=O)c2ccncc2)CCN(C)C1 (stereo not drawn)
1
Cc1ccc2c(c1)c1c(n2C(CC(C)(C)C)C(=O)c2ccncc2)CCN(C)C1 (stereo not drawn)
77
Cc1ccc2c(c1)c1c(n2CC(OC(=O)N2CCN(C)CC2)c2ccncc2)CCN(C)C1 (stereo not drawn)
5
Cc1ccc2c(c1)c1c(n2/C=C/c2ccncc2)CCN2CCCC12 (stereo not drawn)
99
Cc1ccc2c(c1)c1c(n2CC(C)(O)c2ccc(F)nc2)CCN2CCCC12 (stereo not drawn) [6b]
61
Cc1ccc2c(c1)c1c(n2CC(OCCCC(=O)O)c2ccncc2)CCN(C)C1 (stereo not drawn)
-5

Item: Cc1ccc2c(c1)c1c(n2CC(OC(=O)N2CCCC2)c2ccncc2)CCN(C)C1 (single isomer, unassigned) Test system: rat adrenergic α1B receptor (Rattus norvegicus, UniProt P15823) Read-out: inhibition at 0.1 µM Value: ?
35

Item: Cc1ccc2c(c1)c1c(n2CC(C)(O)c2ccc(F)nc2)CCN2CCCC12 (single isomer, unassigned) [6a] Test system: rat adrenergic α1B receptor (Rattus norvegicus, UniProt P15823) Read-out: inhibition at 0.1 µM Value: ?
91

Item: "Cc1ccc2c(c1)c1c(n2CCc2cncc(S(C)(=O)=O)c2)CCN(C)C1" Test system: rat adrenergic α1B receptor (Rattus norvegicus, UniProt P15823) Read-out: inhibition at 0.1 µM Value: ?
18

###

Listing of entries alongside the reported inhibition at 0.1 µM.
molecular target: Human adrenergic α2A receptor (Homo sapiens); assay: Radioligand binding, adrenergic α2A (Protocol Group B); set-up: purchased Milipore (Millipore); conditions: 0.1 μM compound; Protocol Group B; read-out: Percentage inhibition of ligand binding, Adrenergic α2A (0.1 μM)
Sequence (P08913 whole entry): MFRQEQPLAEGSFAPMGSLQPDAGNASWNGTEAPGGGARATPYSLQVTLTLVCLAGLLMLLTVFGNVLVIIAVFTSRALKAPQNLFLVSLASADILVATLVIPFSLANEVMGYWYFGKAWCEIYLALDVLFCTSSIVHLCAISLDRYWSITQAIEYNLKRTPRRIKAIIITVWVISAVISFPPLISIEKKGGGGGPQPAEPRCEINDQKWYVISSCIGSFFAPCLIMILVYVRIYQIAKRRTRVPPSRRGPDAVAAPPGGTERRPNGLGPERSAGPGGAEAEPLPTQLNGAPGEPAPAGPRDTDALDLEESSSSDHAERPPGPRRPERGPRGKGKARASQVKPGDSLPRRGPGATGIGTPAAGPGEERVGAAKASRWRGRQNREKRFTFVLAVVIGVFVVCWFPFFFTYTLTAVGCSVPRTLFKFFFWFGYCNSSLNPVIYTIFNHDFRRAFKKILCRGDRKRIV
// units = %; emit number, no label

Cc1ccc2c(c1)c1c(n2CC(OC(C)C)c2ccncc2)CCN(C)C1 (stereo not shown)
28
Cc1ccc2c(c1)c1c(n2CC(C)(O)c2ccnc(F)c2)CCN2CCCC12 (single isomer, unassigned) [48a]
73
Cc1ccc2c(c1)c1c(n2CC(O)c2ccc(C(=O)N(C)C)nc2)CCN(C)C1 (stereo not shown)
-8

Now look at this entry.
What value of inhibition at 0.1 µM has been reported for the following compound? CC(O)(Cn1c2c(c3cc(C(F)(F)F)ccc31)CN1CCCC1C2)c1cccnc1 (single isomer, unassigned) [85a]
-12
